- System: SNB-75 CNS
- method-summary: NCI-60 one-dose screen, 48 h
- condition-info: 10 µM unless noted
This is part of a sample that, as a whole, favours compounds with a hit. Of some 83,000 tested, about 20% had one in any assay. Calls of active or inactive are those of the source. The calls were made as follows: active = growth percent below 10; inactive = the rest.
Possible outcomes: 1.0 for active, 0.0 for inactive

1) CC1(C)CC[C@]2(CO)CC[C@]3(C)C(=CC[C@@H]4[C@@]5(C)CC[C@H](NCO)C(C)(C)[C@@H]5CC[C@]43C)[C@@H]2C1 : 1.0
2) CC(C)(C)c1nc(-c2ccc(O)c(O)c2)cs1 : 0.0
3) C/C(Cc1ccc(Cl)cc1)=C(/c1ccc(Cl)cc1)c1ccc(OCCN2CCCC2)cc1 : 0.0
4) O=Cc1nc2ccccc2[nH]1 : 0.0
5) O=S(=O)(NCCCNc1cc(-c2cn(-c3ccccc3)nc2-c2cccc(O)c2)ccn1)c1ccc(F)cc1 : 0.0

---

- System: MDA-MB-231 breast
- method-summary: NCI-60 one-dose screen, 48 h
- condition-info: 10 µM unless noted
Compounds without any hit were thinned out: in the full panel of roughly 83,000, 20% have a hit. Active and inactive are the calls of the source. How the source made its calls: active means growth percent below 10; inactive means the rest.
Possible outcomes: Yes for active, No for inactive

1. Fc1cccc(-c2[nH]nc3nc(Nc4cccnc4)sc23)c1 : No
2. O=C1/C(=C\C(Cl)=C/c2ccc([N+](=O)[O-])cc2)SC(=S)N1CCc1ccc(O)cc1 : Yes
3. O=c1[nH]ncc(Br)c1Br : No
4. CC(C)=CCC[C@](C)(O)[C@H]1CC[C@]2(C)[C@@H]1CC[C@@H]1[C@@]3(C)C/C(=C/c4cccc([N+](=O)[O-])c4)C(=O)C(C)(C)[C@@H]3CC[C@]12C : No
5. CN1CCN(c2nc(-c3csc(-c4cccs4)n3)cc3ccccc23)CC1 : No
6. O=S(=O)(NCCNc1cc(-c2cn(-c3ccccc3)nc2-c2cccc(O)c2)ccn1)c1cccc(F)c1 : No
7. COC(=O)[C@]12CC[C@@H](C)[C@H](C)[C@@H]1C1=CC[C@@H]3[C@@]4(C)CC(=O)[C@H](OC(=O)c5ccco5)[C@@]5(C)COC(=C45)C[C@@]3(C)[C@]1(C)CC2 : No
8. CN1CCN(c2ccc3nc(-c4[nH]ncc4Nc4ncnc5c4OCCCN5)[nH]c3c2)CC1 : Yes

---

- Test system: SK-OV-3 ovarian
- method-summary: NCI-60 one-dose screen, 48 h
- condition-info: 10 µM unless noted
The panel holds about 83,000 compounds, 20% with a hit somewhere; the sample as a whole holds those more often. Activity calls are given as the source filed them. Rule for the calls: active = growth percent below 10; inactive = the rest.
Possible outcomes: yes for active, no for inactive

1. COc1cnc2c(c1)C(=O)c1c-2n(CCCNC2=NCCS2)c(=O)c2cc([N+](=O)[O-])ccc12 : yes
2. NC1=NN(c2ccccc2)C(=O)/C1=C/c1ccc(Cl)cc1 : no
3. COc1ccc(-c2cc(-c3cccs3)n(N=O)c(=O)c2C#N)cc1 : no
4. CC1(c2ccccc2)OC1C(=O)O (stereo not given) : no
5. Cc1cc(Cl)nc(N(CCNc2ccnc3cc(Cl)ccc23)Cc2ccco2)n1 : no
6. C/C(=N\Nc1ccc2ccccc2n1)c1ccccn1 : no
7. CC1(C)CC[C@]2(CO)CC[C@]3(C)C(=CC[C@@H]4[C@@]5(C)CC[C@H](NCO)C(C)(C)[C@@H]5CC[C@]43C)[C@@H]2C1 : no
8. NC1=C(C/C(N)=N\O)C(c2ccccc2Cl)c2c(ccc3ccccc23)O1 (stereo not given) : no
9. O=C(/C=C/c1cccc2ccccc12)Nc1ncc(Cc2ccccc2)s1 : no
10. COc1cc(-c2cc3ncccc3c3nc(N)c4cccnc4c23)cc(OC)c1OC : no
11. CC(=O)Cc1nsc(NC(=O)c2ccoc2COc2ccccc2)n1 : no
12. O=C1CCC/C=C\C[C@H]2C=C(Cl)C(=O)/C2=C/C[C@H](CCCCC(F)(F)F)OC(=O)CCC/C=C\C[C@H]2C=C(Cl)C(=O)/C2=C/C[C@H](CCCCC(F)(F)F)O1 : yes
13. N#CC1=C(N)Oc2ccc3ccccc3c2C1c1ccccc1Cl (stereo not given) : no
14. O=C(CI)Nc1ccc(O)c2ccccc12 : no
15. Brc1ccc2c(c1)c(-c1nc(-c3c[nH]c4ncccc34)cs1)cn2CCCN1CCCCC1 : no
16. COc1ccc(-c2n/c(=C\c3c(O)[nH]c4ccc(OC)cc34)cc3c2=Nc2ccccc2-3)cc1 : no
17. CCCCC(=O)OC1CCCCC1C (stereo not given) : no
18. COc1cc2nc(Cl)nc(Nc3cccc(C(=O)/C=C/c4ccc(F)cc4)c3)c2cc1OC : no
19. CCCCCCCCNc1cccc2c1C(=O)c1ccccc1C2=O : no
20. N#Cc1cnc2cc(OC[C@@H](O)CO)c(NC(=O)C3CCCC3)cc2c1Nc1ccc(OCc2cccc(F)c2)c(Cl)c1 : no

---

- System: TK-10 renal
- method-summary: NCI-60 one-dose screen, 48 h
- condition-info: 10 µM unless noted
About 83,000 compounds went through this panel and 20% of them were active in at least one assay; those are over-represented in the sample as a whole. Calls of active or inactive are those of the source. The calls were made as follows: active = growth percent below 10; inactive = the rest.
Possible outcomes: active, inactive

1) CCN1CCN(c2nc(C)cc(N(CCCNc3ccnc4cc(Cl)ccc34)Cc3ccco3)n2)CC1 : inactive
2) COc1ccc(C2CC(=O)c3c(nc4ccc(Cl)cc4c3N)C2)cc1 (stereo not given) : inactive
3) Cn1c2c(c3ccc(Cl)cc31)-n1cccc1C2=O : inactive
4) c1ccc(C2Cc3ccccc3C2=NC2CCCCC2)cc1 (stereo not given) : inactive
5) N#CC1=C(N)Oc2c(c(N)nn2-c2ccccc2)C1c1ccc(Cl)cc1Cl (stereo not given) : inactive
6) Nc1ncnc2nc(Br)[nH]c12 : inactive
7) COc1ccc(NC(=S)N/N=C/c2ccccc2SSCCC(=O)OC[C@H]2O[C@H](O)[C@H](O)[C@@H](O)[C@@H]2O)cc1 : inactive
8) CC1c2ccccc2N(S(=O)(=O)c2ccccc2)C1C (stereo not given) : inactive
9) Cc1cc(N2CCCC2)nc(N(CCNc2ccnc3cc(Cl)ccc23)Cc2ccco2)n1 : inactive
10) N#C/C(=C\c1ccc(-c2cccc(C(F)(F)F)c2)o1)c1nc(-c2ccco2)cs1 : inactive
11) COc1ccc2[nH]cc(-c3nc(-c4c[nH]c5ncccc45)cs3)c2c1 : inactive
12) CCCCC[C@H]1CC=C2C(=O)C(Cl)=C[C@@H]2CC=CCCCC(=O)O[C@@H](CCCCC)CC=C2C(=O)C(Cl)=C[C@@H]2CC=CCCCC(=O)O[C@@H](CCCCC)CC=C2C(=O)C(Cl)=C[C@@H]2CC=CCCCC(=O)O1 : inactive
13) COc1ccc(-c2n/c(=C\c3c(O)[nH]c4ccc(OC)cc34)cc3c2=Nc2ccccc2-3)cc1 : active
14) O=C(O)c1cccc2c1C(=O)N(c1ccc3c(c1)Cc1ccccc1-3)C2=O : inactive
15) Fc1ccc(NCc2nnc(-c3ccc(Cl)cc3)o2)cc1 : inactive
16) COc1ccc(C2c3ccccc3NC(=O)N2C2CCN(C)CC2)c(OC)c1 (stereo not given) : inactive
17) N#Cc1c(-c2ccco2)nc2c(c(-c3ccccc3)nn2-c2ccccc2)c1-c1ccc(O)cc1 : inactive
18) CC(=O)Oc1ccccc1C(=O)/C=C/c1cccc([N+](=O)[O-])c1 : inactive
19) Cn1cc(-c2nc(-c3cn(C)c4ncccc34)cs2)c2cc(F)ccc21 : inactive
20) COc1cccc(-c2nn(-c3ccccc3)cc2-c2ccnc(NCCNS(=O)(=O)c3ccccc3)c2)c1 : inactive

---

- System: 786-0 renal
- method-summary: NCI-60 one-dose screen, 48 h
- condition-info: 10 µM unless noted
About 83,000 compounds went through this panel and 20% of them were active in at least one assay; those are over-represented in the sample as a whole. The source made the active and inactive calls. How the source made its calls: active means growth percent below 10; inactive means the rest.
Possible outcomes: active, inactive

1. O=c1[nH]ncc(Br)c1Br : inactive
2. O=c1[nH]c(=S)[nH]c2nc[nH]c12 : inactive
3. Cc1cccc2c1NC(=O)[C@@]21[C@H](C(=O)c2ccccc2)[C@]2(C(=O)Nc3ccccc32)[C@H]2CCCN21 : inactive
4. COc1cc(C(=O)/C=C/c2cc(-c3ccc4c(c3)OCO4)n[nH]2)cc(OC)c1OC : inactive
5. CC(C)C[C@@H](NC(=O)[C@@H](Cc1ccccc1)NC(=O)c1cnccn1)B1O[C@H]2[C@H](O)[C@@H](C(=O)NCCCC[C@@H]3NC(=O)[C@@H](Cc4ccccc4)NC(=O)[C@H](CC(=O)O)NC(=O)CNC(=O)[C@H](CCCN=C(N)N)NC3=O)O[C@@H](CN)[C@H]2O1 : active
6. COC1=C(Br)C(=O)C(OC)=C(Br)C1=O : inactive
7. Cc1ccc2[nH]cc(-c3nc(-c4cn(C)c5ncccc45)cs3)c2c1 : inactive
8. CC/C(=N/NC(N)=O)c1ccccc1 : inactive
9. O=c1c(CNc2ccc(S(=O)(=O)Nc3ncccn3)cc2)coc2ccccc12 : inactive

src = PubChem BioAssay (NCI)
